Target: human TLR8 (hTLR8) (Homo sapiens)
Sequence (Q9NR97 27-1041): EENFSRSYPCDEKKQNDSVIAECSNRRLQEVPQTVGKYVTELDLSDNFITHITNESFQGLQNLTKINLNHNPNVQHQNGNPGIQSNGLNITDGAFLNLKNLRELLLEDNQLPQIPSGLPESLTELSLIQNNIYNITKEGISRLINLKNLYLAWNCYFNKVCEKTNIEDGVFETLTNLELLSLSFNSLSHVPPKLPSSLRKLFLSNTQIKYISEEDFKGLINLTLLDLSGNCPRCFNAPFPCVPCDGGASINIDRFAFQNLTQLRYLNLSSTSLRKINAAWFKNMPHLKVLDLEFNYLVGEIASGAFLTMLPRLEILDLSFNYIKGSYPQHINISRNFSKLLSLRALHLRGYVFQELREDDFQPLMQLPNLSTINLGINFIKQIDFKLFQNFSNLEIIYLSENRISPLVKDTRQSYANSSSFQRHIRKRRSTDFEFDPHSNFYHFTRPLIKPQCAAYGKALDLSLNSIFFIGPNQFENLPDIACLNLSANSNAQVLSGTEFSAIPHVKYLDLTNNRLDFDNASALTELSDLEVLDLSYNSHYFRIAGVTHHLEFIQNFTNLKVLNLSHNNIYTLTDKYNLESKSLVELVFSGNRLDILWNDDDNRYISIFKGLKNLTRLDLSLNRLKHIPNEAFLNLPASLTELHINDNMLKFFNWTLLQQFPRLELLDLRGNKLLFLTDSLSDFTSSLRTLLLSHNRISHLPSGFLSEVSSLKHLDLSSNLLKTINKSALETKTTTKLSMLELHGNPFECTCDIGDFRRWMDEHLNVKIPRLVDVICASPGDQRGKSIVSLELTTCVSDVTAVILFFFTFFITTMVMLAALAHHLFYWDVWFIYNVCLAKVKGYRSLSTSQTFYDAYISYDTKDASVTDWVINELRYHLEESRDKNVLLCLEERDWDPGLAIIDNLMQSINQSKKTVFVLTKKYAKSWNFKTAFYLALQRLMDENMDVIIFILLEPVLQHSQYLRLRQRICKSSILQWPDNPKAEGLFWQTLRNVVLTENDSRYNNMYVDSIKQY
Experiment: Human TLR8 agonist activity assay (measured in a similar manner)
Conditions: HEK-Blue TLR cells, SEAP reporter, measured in a similar manner to TLR7; some values average of multiple measurements
PARAMETER: EC50 (nM)

COMPOUND	OUTPUT UNIT	EC50
CCCCN(CCO)c1nc(N)nc2cn(Cc3c(F)cc(CNCCO)cc3OC)nc12	nM	835
CCCCN(CCO)c1nc(N)nc2cn(Cc3cc(OC)c(C4CCN(CCOC)CC4)cc3OC)nc12	nM	2500
CCCCN(CCO)c1nc(N)nc2cn(Cc3ccc(CN[C@H]4C[C@H](OC)C4)c4c3OCCC4)nc12	nM	608

A. CCCCN(CCO)c1nc(N)nc2cn(Cc3ccc(CN4C[C@H]5COC[C@H]5C4)cc3OC)nc12
B. CCCCN(CCO)c1nc(N)nc2cn(Cc3ccc(CNCCOC)cc3)nc12
C. CCCCN(CCO)c1nc(N)nc2cn(Cc3c(F)cc(CNC4CCOCC4)cc3F)nc12
D. CCCCN(CCO)c1nc(N)nc2cn(Cc3ccc(CN[C@@H]4CCCN(C(C)=O)C4)c4cccnc34)nc12
E. CCCCN(CCO)c1nc(N)nc2cn(Cc3ccc(CN4CC5(CCO5)C4)cc3OC)nc12
Request: Would you mind ranking these compounds by ascending EC50? Use the labels to give the requested order.
Response: E, B, A, C, D
(E: 266 nM, B: 506 nM, A: 727 nM, C: 1500 nM, D: 3490 nM)

a. CCCCN(CCO)c1nc(N)nc2cn(Cc3ccc(CN[C@@H]4COC[C@@H]4F)cc3OC)nc12
b. CCCCN(CCO)c1nc(N)nc2cn(Cc3ccc(CN4CC(OC)C4)cc3OC)nc12
c. CCCCN(CCO)c1nc(N)nc2cn(Cc3c(F)cc(CN[C@@H]4COC[C@@H]4O)cc3OC)nc12
Request: Output the entries ranked by EC50 from maximum down to minimum. Use the labels to give the requested order.
Response: c, a, b
(c: 2500 nM, a: 1500 nM, b: 700 nM)

P. CCCCN(CCO)c1nc(N)nc2cn(Cc3ccc(CNC4(C)CC4)cc3OC)nc12
Q. CCCCN(CCO)c1nc(N)nc2cn(Cc3ccc(CNC4CC(F)(F)C4)c4cccnc34)nc12
Request: Quick check, higher EC50 between P and Q ? Kindly give the label for the entry you pick.
Response: Q

A. CCCCN(CCO)c1nc(N)nc2cn(Cc3ccc(CNCCCC4CC4)c4cccnc34)nc12
B. CCCCN(CCO)c1nc(N)nc2cn(Cc3c(F)cc(N4CCC(N[C@@H]5CCOC5)CC4)cc3F)nc12
Request: Quick check, higher EC50 between A and B ? Kindly give the label for the entry you pick.
Response: B

P. CCCCN(CCO)c1nc(N)nc2cn(Cc3ccc(CNC4(C)COC4)cc3OC)nc12
Q. CCCCN(CCO)c1nc(N)nc2cn(Cc3ccc(CNC4CCOC(C)(C)C4)c4cn[nH]c34)nc12 (centres unmarked)
Request: Lower EC50: P or Q ? Kindly give the label for the entry you pick.
Response: P
(P: 834 nM, Q: 2850 nM)

I. CCCCN(CCO)c1nc(N)nc2cn(Cc3c(F)cc(CNCCO)cc3F)nc12
II. CCCCN(CCO)c1nc(N)nc2cn(Cc3ccc(CNC4CC5(COC5)C4)cc3)nc12
Request: Quick check, higher EC50 between I and II ? Kindly give the label for the entry you pick.
Response: I

P. CCCCN(CCO)c1nc(N)nc2cn(Cc3cnc(CN[C@H]4C[C@H](OC)C4)cc3OC)nc12
Q. CCCCN(CCO)c1nc(N)nc2cn(Cc3c(F)cc(CNC4CCOCC4)cc3OC)nc12
Request: Lower EC50: P or Q ? Kindly give the label for the entry you pick.
Response: Q
(Q: 1280 nM, P: 1870 nM)

I. CCCCN(CCO)c1nc(N)nc2cn(Cc3ccc(CNC4CCC4)c4cccnc34)nc12
II. CCCCN(CCO)c1nc(N)nc2cn(Cc3ccc(CNC4CCCC4)c4cccnc34)nc12
Request: Quick check, higher EC50 between I and II ? Kindly give the label for the entry you pick.
Response: II
